- System: TK-10 renal
- Assay details: NCI tumour cell line growth inhibition, 48 h; in the data active means GI50 below about 0.43 µM; inactive means the rest
// one of yes (1) (active), no (0) (inactive), no free text

Answer briefly: the call reported for CC(=O)O[C@H]1CC[C@@]2(C)C(=C/C(=N/OCCN3CCCC3)[C@H]3[C@@H]4CC[C@H](OC(C)=O)[C@@]4(C)CC[C@@H]32)C1 in this assay. no (0)

Entry to check: Cc1nc2ccccc2nc1N=Nc1ccccc1 no (0)

Could you do the same for Cl.Fc1c[c-]c(-c2ccccn2)c(F)c1.[Pt].c1ccc([PH+](C[PH+](c2ccccc2)c2ccccc2)c2ccccc2)cc1 , please? yes (1)

One more compound: CN(C)c1ccc(/C=N/S(=O)(=O)c2ccc(-n3c(-c4ccccc4)nc4c(Br)cc(Br)cc4c3=O)cc2)cc1 no (0)

Record: CCSC[C@@H]1C[C@](O)(c2ccc(F)cc2)[C@@H](c2ccc(F)cc2)O1 no (0)

* * *

- System: SF-539 CNS
- Assay details: NCI tumour cell line growth inhibition, 48 h; in the data active = GI50 below about 0.43 µM; inactive = the rest
One label from this list, please: class 1 for active, class 0 for inactive

Here are 3 molecules together with their reported answers.
- Molecule: "COc1ccc(CCN2CCC(CN(C)Cc3cnn(-c4ccccc4)c3)CC2)cc1"
  Subject of test: "SF-539 CNS"
  Class label: "class 0"
- Molecule: "CC([O-])=C1C(=O)c2ccccc2C1=O.CC([O-])=C1C(=O)c2ccccc2C1=O.CC[O-].CC[O-].[Ti+4]"
  Subject of test: "SF-539 CNS"
  Class label: "class 0"
- Molecule: "NC1(Cc2ccc(Cl)cc2)CCN(c2ncnc3[nH]ccc23)CC1"
  Subject of test: "SF-539 CNS"
  Class label: "class 0"

Check the results log: what was the call for CCCCCCNCc1cc(C(C)(C)C)cc(CNCCCCCC)c1O ? class 0

Repeat with CC1(C)Cc2c(Br)c(Br)c(Br)c(OCC(O)CN3CCN(c4ccccn4)CC3)c2O1 (stereo not given) class 0

Next entry: O=C1/C(=C/c2ccc(O)cc2)COc2ccc(O)c(O)c21 class 0

Another molecule to check: CCCCNc1ccc(Nc2ccccc2)cc1 class 0

Again, but for Cc1[nH]c2cc(F)ccc2c1-c1nc2c3cccnc3c3ncccc3c2[nH]1 class 1

* * *

- System: SK-OV-3 ovarian
- Assay details: NCI tumour cell line growth inhibition, 48 h
Each item that follows carries a reported TGI.
Give the value, in units of µM, as a plain number.

Use the examples below as a reference point.
- Molecule: "C(=Nc1ccc(-c2nc3ccccc3s2)cc1)c1ccc[nH]1"
  TGI, µM: 51.6
- Molecule: "CCn1c(CCl)nc2c1C(=O)c1ccccc1C2=O"
  TGI, µM: 2.38

Here's the next entry for you.
Enter reported TGI observed with SK-OV-3 ovarian for O=C1C(c2c(O)[nH]c3ccc(Br)cc23)=Nc2ccc(Br)cc21 90.8

* * *

- System: SK-MEL-5 melanoma
- Assay details: NCI tumour cell line growth inhibition, 48 h
We begin with a simple list: items and their reported TGI.

- Compound: "O=C(O)c1c(Br)c(Br)c(Br)c(Br)c1C1c2ccc(O)cc2Oc2cc(O)ccc21"
  Reported result: "> 100 µM"
- Compound: "O=C1CSC(c2cccc(Cl)c2)N1c1ccc(-c2ccc(-n3c(-c4ccccc4)nc4ccccc4c3=O)cc2)cc1 (centres undefined)"
  Reported result: "84.4 µM"
- Compound: "Cc1ccc(NC(=O)CCc2n[nH]c(=S)o2)cc1"
  Reported result: "> 100 µM"
- Compound: "CC(C)(NC(=O)OCc1ccccc1)C(=O)OC(=O)C(C)(C)NC(=O)OCc1ccccc1"
  Reported result: "> 100 µM"
- Compound: "Cc1c2c(n(CC(c3ccccc3)c3ccccc3)c1C)NN=C(C#N)S2(=O)=O"
  Reported result: "> 100 µM"

API: value(readout= TGI, system= SK-MEL-5 melanoma, query= CCOC(=O)C1(C#N)CC1 ) > 100 µM

Repeat for the following compound: CCOC(=O)Nc1cc2ccccc2c(N=Nc2ccccc2)c1O > 100 µM

Entry NC(=O)c1sc(-n2cnc3cc(C(F)(F)F)ccc32)cc1OCc1ccccc1Br please > 25 µM

Check O=C1CSC(c2ccc(Cl)cc2Cl)N1c1ccc(Oc2ccc(Cl)cc2)c(Cl)c1 (centres undefined) too. 43.6 µM
